- Species: Homo sapiens
- PROTOCOL DESCRIPTION: Selectivity ratio of IC50 for human FAAH to IC50 for human MGL
Entries and their measured Ratio IC50 follow.
API doc: respond with a numeric literal and nothing else, no unit.

Record excerpt, results attached:
O=C1C=CC(=O)N1Cc1ccc(CN2C(=O)C=CC2=O)cc1
10
O=C1C=CC(=O)N1c1ccc(I)cc1
14
CC(C)c1ccccc1N1C(=O)C=CC1=O
9
O=C1C=CC(=O)N1c1cccc(Cl)c1
39
O=C1C=CC(=O)N1c1cccc(N2C(=O)C=CC2=O)c1
18
CCc1ccc(CN2C(=O)C=CC2=O)cc1
35
O=C1C=CC(=O)N1c1ccccc1I
37
CCc1ccc(N2C(=O)C=CC2=O)cc1
58

q: Field request: Ratio IC50 | item: O=C1C=CC(=O)N1c1cccc(I)c1
a: 45

q: Field request: Ratio IC50 | item: O=C1C=CC(=O)N1CCCCN1C(=O)C=CC1=O
a: 0.3

q: Field request: Ratio IC50 | item: CCCCCCCCCN1C(=O)C=CC1=O
a: 12

q: Field request: Ratio IC50 | item: CCc1cccc(N2C(=O)C=CC2=O)c1
a: 22

q: Field request: Ratio IC50 | item: O=C1C=CC(=O)N1c1ccccc1-c1ccccc1
a: 116

q: Field request: Ratio IC50 | item: O=C1C=CC(=O)N1c1ccc(N2C(=O)C=CC2=O)cc1
a: 6

====

Entries and their measured pIC50 follow.
- EXPERIMENTAL TARGET: UniProtKB O00519
- Sequence (O00519 whole entry): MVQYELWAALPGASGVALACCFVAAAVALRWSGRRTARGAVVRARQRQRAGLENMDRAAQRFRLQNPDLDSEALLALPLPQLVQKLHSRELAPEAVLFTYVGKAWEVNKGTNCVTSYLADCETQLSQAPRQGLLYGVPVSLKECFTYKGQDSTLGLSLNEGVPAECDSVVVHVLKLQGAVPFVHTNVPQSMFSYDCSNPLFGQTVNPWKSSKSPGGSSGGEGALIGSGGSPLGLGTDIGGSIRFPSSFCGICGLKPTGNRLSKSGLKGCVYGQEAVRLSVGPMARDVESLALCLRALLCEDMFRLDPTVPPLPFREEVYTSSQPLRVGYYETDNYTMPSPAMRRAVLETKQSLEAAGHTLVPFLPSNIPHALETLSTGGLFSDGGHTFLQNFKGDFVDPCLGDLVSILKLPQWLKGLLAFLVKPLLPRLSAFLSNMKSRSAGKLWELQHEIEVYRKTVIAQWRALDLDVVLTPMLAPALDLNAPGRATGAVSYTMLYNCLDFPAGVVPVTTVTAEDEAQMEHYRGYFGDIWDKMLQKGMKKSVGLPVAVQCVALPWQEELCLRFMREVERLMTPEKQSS
- PROTOCOL DESCRIPTION: Displacement of [3H]ethanolamine from human recombinant FAAH by liquid scintillation counting
The scale used: pIC50 is minus the common logarithm of the concentration in molar units.

Record excerpt, results attached:
CCCCCCCCCN1C(=O)C=CC1=O
4.39
O=C1C=CC(=O)N1c1cccc(N2C(=O)C=CC2=O)c1
4.43
O=C1C=CC(=O)N1c1cccc(-c2ccccc2)c1
4.31
O=C1C=CC(=O)N1c1cccc(I)c1
4.21
O=C1C=CC(=O)N1c1ccc(-c2ccccc2)cc1
5.23

q: Field request: pIC50 | item: O=C1C=CC(=O)N1c1ccc(N2C(=O)C=CC2=O)cc1
a: 4.87

q: Field request: pIC50 | item: O=C1C=CC(=O)N1c1ccccc1-c1ccccc1
a: 3.74

q: Field request: pIC50 | item: O=C1C=CC(=O)N1c1ccc(I)cc1
a: 4.22

q: Field request: pIC50 | item: CCc1ccc(N2C(=O)C=CC2=O)cc1
a: 3.79

q: Field request: pIC50 | item: O=C1C=CC(=O)N1c1ccc(Cl)cc1
a: 3.95
